# Test system: TAK1
# Construct: gene MAP3K7
# Recorded Conditions: concentration: 1 μM, replicates: in singlicate; n = 1;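 further: KINOMEscan kinase panel screen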
Simple rule here: %Inh less than 10% is 1 (yes), otherwise 0 (no).

Known results for compounds:
compound=COc1ccc2cc(-c3nc(-c4ccccc4C(C)C)[nH]c3-c3ccncc3)ccc2c1 cat="1 (yes)"
compound=CNc1nc(-c2ccc3c(N)n[nH]c3c2)cc(N2C[C@@H](C(=O)Nc3ccccc3)CC[C@H]2C)n1 cat="1 (yes)"
compound="COC(=O)c1cccc(NC(=O)NC2CCN(c3ccnc(Nc4ccc(OC)cc4)n3)C2)c1 (centres unmarked)" cat="1 (yes)"
compound=CNC(=O)c1ccc(C)c(-n2c(C)cc(OCc3ccc(F)cc3F)c(Br)c2=O)c1 cat="0 (no)"
compound=COc1nccc(-c2c(-c3ccc(F)cc3)ncn2CCCN2CCOCC2)n1 cat="0 (no)"

# ---- query compound ----
Take the compound Fc1ccc(-c2nc[nH]c2-c2ccncc2)cc1 and say whether its %Inh is less than 10%.
1 (yes)

###

Parameter: %Inh. Scope: all listed entries.
# Tested on: PRKG1
# Recorded Conditions: concentration: 1 μM, replicates: in singlicate; n = 1

smiles_input=Cl.Cl.Cl.N#Cc1ccc(CCNc2nccc(-c3cccc(CN4CCNCC4)c3)n2)cc1 measured_quantity=%Inh test_value=0%
smiles_input=Cc1c(Cn2c3ccccc3n3c(=O)cc(N4CCOCC4)nc23)cccc1C(F)(F)F measured_quantity=%Inh test_value=28%
smiles_input=CNCc1ccc2nc(NC(=O)c3ccc(C(C)(C)C)cc3)cn2c1 measured_quantity=%Inh test_value=0%
smiles_input=COc1ccc(CSc2nnc(-c3ccc4ncsc4c3)o2)cc1C(F)(F)F measured_quantity=%Inh test_value=0%
smiles_input=COc1cc2ncnc(Nc3cccc(Br)c3)c2cc1OC.Cl measured_quantity=%Inh test_value=9%

Query: %Inh; subject: CS(=O)(=O)CCNCc1nc(-c2ccc3ncnc(Nc4ccc5c(cnn5Cc5ccccc5)c4)c3c2)cs1.Cl.Cl
0%

Query: %Inh; subject: Cn1cncc1-c1cc2c(Nc3ccc(OCc4ccccc4)cc3)ncnc2cn1
8%

Query: %Inh; subject: CCn1c(-c2ccccc2)nc2cnccc21
0%

Query: %Inh; subject: CSc1ccc(-c2nc3n(c2-c2ccncc2)CCC3)cc1
0%

###

# System: PRKCH
# Recorded Conditions: concentration: 1 μM, replicates: in singlicate; n = 1
Parameter: %Inh. Scope: all listed entries.
Respond with the bare value in %.

Worked examples, 2 compounds total:
compound=Cc1cccc2c(-c3ccncn3)c(-c3ccc(F)cc3)nn12 unit_label=% test_value=33
compound="Cn1cncc1C(=O)NC1CCN(c2ccnc(Nc3ccc(F)cc3)n2)C1 (stereo not drawn)" unit_label=% test_value=0

Continue with the next compound.
Query: %Inh; subject: COC(=O)c1cccc(NC(=O)NC2CCN(c3ccnc(Nc4ccc(F)cc4)n3)C2)c1 (stereo not drawn)
3

###

# Tested on: MST4
# Recorded Conditions: concentration: 1 μM, replicates: in singlicate; n = 1
Measured Quantity: %Inh

compound="Cc1ccccc1-c1cc(-c2c[nH]nc2-c2ccccn2)ccn1 [GW680061]" target_or_test_system=MST4 test_value=10%

Query: %Inh; subject: O=c1cc(N2CCOCC2)nc2n(Cc3cccc(Cl)c3Cl)c3ccccc3n12 [GSK2299009]
0%

Query: %Inh; subject: CCn1c(-c2ccccc2)nc2cnccc21 [SB-733416]
0%

Query: %Inh; subject: Fc1ccc(-c2nc3n(c2-c2ccncc2)CCS3)cc1 [GI98581]
0%

Query: %Inh; subject: CSc1ccc(-c2nc3n(c2-c2ccncc2)CCC3)cc1 [SKF-105561]
20%
